Origin of measurements: patent US8097422B2

# target.or.system: GIRK2 PIP L257W mutant (Mus musculus, UniProt P48542, D228N/I234L/L257W/M344L/N231K)
# Sequence (P48542 1-425 D228N/N231K/I234L/L257W/M344L): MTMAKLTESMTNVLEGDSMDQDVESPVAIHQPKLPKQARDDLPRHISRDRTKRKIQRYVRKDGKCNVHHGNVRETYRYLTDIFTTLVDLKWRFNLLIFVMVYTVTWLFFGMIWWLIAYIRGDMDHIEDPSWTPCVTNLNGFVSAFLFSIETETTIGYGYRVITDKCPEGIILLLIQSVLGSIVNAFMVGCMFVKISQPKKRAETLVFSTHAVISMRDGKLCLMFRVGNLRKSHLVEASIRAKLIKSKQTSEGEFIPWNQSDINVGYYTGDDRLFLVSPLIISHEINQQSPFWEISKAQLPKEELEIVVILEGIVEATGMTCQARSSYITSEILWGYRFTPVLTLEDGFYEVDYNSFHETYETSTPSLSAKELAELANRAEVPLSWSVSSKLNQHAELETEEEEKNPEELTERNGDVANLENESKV
# assay.notes: whole-cell patch clamp, GIRK2 PIP L257W mutant channel
# condition.details: dose response; read-out: IC50 for inhibition of GIRK2 PIP L257W mutant
pIC50: −log10 of the molar value.
reported.property: pIC50

(Q) Return value of pIC50 for input CC(O)CC(C)(C)O (racemic) , no commentary.
(A) ~2.11
